Run Description: Cell toxicity / % cell viability by flow cytometry (cells in total events v. untreated)
Format: cell-based, human
Experimental Setup: human, THP-1 cells, THP-1; Protocol C; shuttle 1 μM; GFP-NLS 5 μM; incubation time 120 sec; read-out: Cell viability (%) (±St. Dev.; n = 3)
Where no end group is shown, it is not given here.
Experimental Endpoint: viability at 2 min, 1 µM (%)
Give a bare numeral; the unit % is implied.

Task: Find the recorded viability at 2 min, 1 µM belonging to YGRKKRRQRRRCWEAKLAKALAKALAKHLAKALAKALKACEA (cysteines drawn unpaired) [TAT-KALA] and report it.
Output: 46.3

###

Run Description: Cell toxicity / % cell viability by flow cytometry (cells in total events v. untreated)
Format: cell-based, Human
Experimental Setup: human, HeLa cells, Cell viability (%) (±St. Dev.; n = 3), FIG. 11B; HeLa; TAT-GFP 5 μM; shuttle 1 μM; 1 hour; read-out: Cell viability (%) (±St. Dev.; n = 3), FIG. 11B
Where no end group is shown, it is not given here.
Experimental Endpoint: viability at 1 h, 1 µM (%)
Give a bare numeral; the unit % is implied.

Task: Find the recorded viability at 1 h, 1 µM belonging to KWKLFKKIGAVLKVLTTGYGRKKRRQRRRC [CM18-TAT-Cys] and report it.
Output: 89.3

###

Run Description: Cell toxicity / % cell viability by flow cytometry (cells in total events v. untreated)
Assay type: cell-based, Human
Experimental Setup: human, HeLa cells, Cell viability (%) (±St. Dev.; n = 3), FIG. 29G; HeLa; Protocol B; shuttle 10 μM; GFP-NLS 5 μM; incubation 1 min; read-out: Cell viability (%) (±St. Dev.; n = 3), FIG. 29G
Where no end group is shown, it is not given here.
Experimental Endpoint: viability at 1 min, 10 µM
Numeric answer plus unit only.

Task: Find the recorded viability at 1 min, 10 µM belonging to HHHHHHKWKLFKKIGAVLKVLTTGYARAAARQARAHHHHHH [His-CM18-PTD4-His] and report it.
Output: 68.1%

###

Run Description: Cell viability (%) by flow cytometry
Format: cell-based
Experimental Setup: human, Jurkat cells, Protocol C, shuttle 5 μM, GFP-NLS 5 μM, 15 seconds, read-out: Cell viability (%) (±St. Dev.; n = 3)
Where no end group is shown, it is not given here.
Experimental Endpoint: viability at 15 s, 5 µM (%)
Give a bare numeral; the unit % is implied.

Task: Find the recorded viability at 15 s, 5 µM belonging to HHHHHHKWKLFKKIGAVLKVLTTGYARAAARQARA [His-CM18-PTD4] and report it.
Output: 73.6

###

Run Description: Cell toxicity / % cell viability by flow cytometry (cells in total events v. untreated)
Assay type: cell-based, human
Experimental Setup: human, THP-1 cells, Cell viability (%) (±St. Dev.; n = 3); THP-1; daily 150 min exposure with serum; shuttle 0.5 μM; GFP-NLS 5 μM; exposure 1 day
Where no end group is shown, it is not given here.
Experimental Endpoint: viability at 24 h, 0.5 µM (%)
Give a bare numeral; the unit % is implied.

Task: Find the recorded viability at 24 h, 0.5 µM belonging to HHHHHHKWKLFKKIGAVLKVLTTGYARAAARQARA [His-CM18-PTD4] and report it.
Output: 98.2

###

Run Description: Cell toxicity / % cell viability by flow cytometry (cells in total events v. untreated)
Type: cell-based, Human
Experimental Setup: human, HeLa cells, HeLa; antibody 0.5 μM; shuttle 3.5 μM; 1 hour; read-out: Cell viability (%) (± St. Dev.; n = 3), FIG. 19B
Bridges are numbered along the chain shown (N, C = ends). Roman numbers before positions name the chains, in order. Where no end group is shown, it is not given here.
Reported values of viability at 1 h, 3.5 µM for individual entries
Give a bare numeral; the unit % is implied.

Example results:
KWKLFKKIGAVLKVLTTGYGRKKRRQRRRC [CM18-TAT-Cys] : 95
I: KWKLFKKIGAVLKVLTTGRQIKIWFQNRRMKWKKC / II: KWKLFKKIGAVLKVLTTGRQIKIWFQNRRMKWKKC (disulfide I:35-II:35) [dCM18-Penetratin-Cys] : 74

Here is the next item to consider.
Task: Find the recorded viability at 1 h, 3.5 µM belonging to KWKLFKKIGAVLKVLTTGRQIKIWFQNRRMKWKKC [CM18-Penetratin-Cys] and report it.
Output: 73

###

Run Description: Cell toxicity / % cell viability by flow cytometry (cells in total events v. untreated)
Format: cell-based, Human
Experimental Setup: human, HeLa cells, Cell viability (%) (±St. Dev.; n = 3), FIG. 29E; HeLa; Protocol B; shuttle 50 μM; GFP-NLS 5 μM; 10 seconds; read-out: Cell viability (%) (±St. Dev.; n = 3), FIG. 29E
Where no end group is shown, it is not given here.
Experimental Endpoint: viability at 10 s, 50 µM (%)
Give a bare numeral; the unit % is implied.

Task: Find the recorded viability at 10 s, 50 µM belonging to MHHHHHHKWKLFKKIGAVLKVLTTGYGRKKRRQRRRC [Met-His-CM18-TAT-Cys] and report it.
Output: 41.4

###

Run Description: Cell toxicity / % cell viability by flow cytometry (cells in total events v. untreated)
Assay type: cell-based, human
Experimental Setup: human, THP-1 cells, Cell viability (%) (±St. Dev.; n = 3), FIG. 31; THP-1; Protocol C; shuttle 5 μM; GFP-NLS 5 μM; 15 seconds; read-out: Cell viability (%) (±St. Dev.; n = 3), FIG. 31
Where no end group is shown, it is not given here.
Experimental Endpoint: viability at 15 s, 5 µM (%)
Give a bare numeral; the unit % is implied.

Task: Find the recorded viability at 15 s, 5 µM belonging to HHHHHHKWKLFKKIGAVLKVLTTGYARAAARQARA [His-CM18-PTD4] and report it.
Output: 64

###

Run Description: Cell toxicity / % cell viability by flow cytometry (cells in total events v. untreated)
Type: cell-based, Human
Experimental Setup: human, HeLa cells, Cell viability (%) (±St. Dev.; n = 3), FIG. 6B; HeLa; GFP 5 μM; shuttle 5 μM; 1 hour; read-out: Cell viability (%) (±St. Dev.; n = 3), FIG. 6B
Where no end group is shown, it is not given here.
Experimental Endpoint: viability at 1 h, 5 µM (%)
Give a bare numeral; the unit % is implied.

Task: Find the recorded viability at 1 h, 5 µM belonging to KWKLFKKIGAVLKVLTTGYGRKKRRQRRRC [CM18-TAT-Cys] and report it.
Output: 90

###

Run Description: Cell toxicity / % cell viability by flow cytometry (cells in total events v. untreated)
Assay type: cell-based, Human
Experimental Setup: human, HeLa cells, Cell viability (%) (±St. Dev.; n = 3), FIG. 29B; HeLa; Protocol B; shuttle 10 μM; GFP-NLS 5 μM; incubation 1 min.; read-out: Cell viability (%) (±St. Dev.; n = 3), FIG. 29B
Where no end group is shown, it is not given here.
Experimental Endpoint: viability at 1 min, 10 µM (%)
Give a bare numeral; the unit % is implied.

Task: Find the recorded viability at 1 min, 10 µM belonging to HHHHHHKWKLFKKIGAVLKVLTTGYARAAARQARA [His-CM18-PTD4] and report it.
Output: 97.6

###

Run Description: Cell toxicity / % cell viability by flow cytometry (cells in total events v. untreated)
Format: cell-based, Human
Experimental Setup: human, HeLa cells
Where no end group is shown, it is not given here.
Experimental Endpoint: viability at 1 min, 10 µM (%)
Give a bare numeral; the unit % is implied.

Task: Find the recorded viability at 1 min, 10 µM belonging to LIRLWSHLIHIWFQNRRLKWKKKYARAAARQARA [EB1-PTD4] and report it.
Output: 61.7

###

Run Description: Cell toxicity / % cell viability by flow cytometry (cells in total events v. untreated)
Type: cell-based, Human
Experimental Setup: human, HeLa cells; HeLa; Protocol B; shuttle 10 μM; GFP-NLS 5 μM; incubation 1 min; read-out: Cell viability (%) (±St. Dev.; n = 3), FIG. 29G
Where no end group is shown, it is not given here.
Experimental Endpoint: viability at 1 min, 10 µM

Task: Find the recorded viability at 1 min, 10 µM belonging to YARAAARQARAWEAKLAKALAKALAKHLAKALAKALKACEA [PTD4-KALA] and report it.
Output: 96.2%

###

Run Description: Cell toxicity / % cell viability by flow cytometry (cells in total events v. untreated)
Type: cell-based, Human
Experimental Setup: human, HeLa cells, Cell viability (%) (±St. Dev.; n = 3), FIG. 11B; HeLa; TAT-GFP 5 μM; shuttle 0.5 μM; 1 hour; read-out: Cell viability (%) (±St. Dev.; n = 3), FIG. 11B
Where no end group is shown, it is not given here.
Experimental Endpoint: viability at 1 h, 0.5 µM (%)
Give a bare numeral; the unit % is implied.

Task: Find the recorded viability at 1 h, 0.5 µM belonging to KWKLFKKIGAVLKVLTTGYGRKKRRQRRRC [CM18-TAT-Cys] and report it.
Output: 84.4

The reported measurements were obtained from patent US12060387B2.
